- Tested on: NCI-H661
- measurement protocol: relative viability (nuclei count vs DMSO), 5 days (fraction); higher = more cells survive
- condition details: first compound 1.265 µM
experimental readout: relative viability
One number for each entry.

Here's what some known entries look like.
Ask: Give the reported value of relative viability for this record: Cc1sc2c(c1C)C(c1ccc(Cl)cc1)=N[C@@H](CC(=O)OC(C)(C)C)c1nnc(C)n1-2 [JQ1] + C[C@@H](Oc1cc(-c2cnn(C3CCNCC3)c2)cnc1N)c1c(Cl)ccc(F)c1Cl [Crizotinib] (partner 1 µM)
Result: 1.05

Ask: Give the reported value of relative viability for this record: Cc1sc2c(c1C)C(c1ccc(Cl)cc1)=N[C@@H](CC(=O)OC(C)(C)C)c1nnc(C)n1-2 [JQ1] + CC(=O)Nc1cccc(-n2c(=O)n(C3CC3)c(=O)c3c(Nc4ccc(I)cc4F)n(C)c(=O)c(C)c32)c1 [Trametinib] (partner 0.02 µM)
Result: 0.46

Ask: Give the reported value of relative viability for this record: Cc1sc2c(c1C)C(c1ccc(Cl)cc1)=N[C@@H](CC(=O)OC(C)(C)C)c1nnc(C)n1-2 [JQ1] + O=C(c1cc(Cc2n[nH]c(=O)c3ccccc23)ccc1F)N1CCN(C(=O)C2CC2)CC1 [Olaparib] (partner 8 µM)
Result: 0.536

Dear reader, for each entry below, please note its relative viability.
1. Cc1sc2c(c1C)C(c1ccc(Cl)cc1)=N[C@@H](CC(=O)OC(C)(C)C)c1nnc(C)n1-2 [JQ1] + Nc1ncn([C@H]2C[C@H](O)[C@@H](CO)O2)c(=O)n1 [Decitabine] (partner 2 µM)
2. Cc1sc2c(c1C)C(c1ccc(Cl)cc1)=N[C@@H](CC(=O)OC(C)(C)C)c1nnc(C)n1-2 [JQ1] + Cc1nc(NC(=O)N2CCC[C@H]2C(N)=O)sc1-c1ccnc(C(C)(C)C(F)(F)F)c1 [Alpelisib] (partner 2 µM)
3. Cc1sc2c(c1C)C(c1ccc(Cl)cc1)=N[C@@H](CC(=O)OC(C)(C)C)c1nnc(C)n1-2 [JQ1] + CC(C)C[C@H](NC(=O)[C@H](Cc1ccccc1)NC(=O)c1cnccn1)B(O)O [Bortezomib] (partner 0.002 µM)

Result:
[0.475, 0.549, 0.431]
